Give growth inhibition for every item shown.
Test: NCI Yeast Anticancer Drug Screen. Data for the mlh1 rad18 strain (AID 175)
Conditions: S. cerevisiae mlh1 rad18 strain growth inhibition; at 50.0 µM; stronger effect = higher value
Procedure: Growth inhibition of yeast strains with defined genetic alterations is measured as a screen for potential anti-cancer activity. Selected strains with alterations in DNA damage repair or cell cycle control were exposed to compounds and growth inhibition was measured relative to vehicle treated controls. The strain used in this assay is mlh1 rad18
This is part of a sample that, as a whole, favours compounds with a hit. Of some 79,000 tested, about 15% had one in any assay.
Numbers only, in %.

Past entries and their recorded results:
{"compound": "CC(O)CNC(=O)C(C)Oc1ccc(OCC2CCCCC2)cc1 (stereo not given)", "unit": "%", "growth inhibition": -15.9}
{"compound": "N=C(N)c1cc(Cl)c(OCc2ccccc2)c(Cl)c1", "unit": "%", "growth inhibition": 12.8}
{"compound": "CC(=O)OC[C@]1(C)CCCC2(C)C1CCC1C=C(C)[C@H]3CCC12C3 (stereo not given in full)", "unit": "%", "growth inhibition": 11.3}

Dear colleague, could you send me growth inhibition for each of the items below? Thanks.
1. O=C(c1ccccc1)C(O)(c1ccccc1)C(c1ccccc1)c1ccccc1 (stereo not given)
2. OCC(O)C(O)C(O)c1nn(-c2ccccc2)c2nc3ccccc3nc12 (stereo not given)

# output
1. 8.05
2. 17.2

Origin of measurements: PubChem BioAssay (NCI)
